# Test system: IL-4 receptor (receptor/Fc fusion protein)
# procedure-details: Specific inhibition of IL-4 binding in cell-free binding assays (IC50 table)
# experimental-setup: cell-free IL-4 binding assay, biotinylated ligand 100 ng/ml, PBSA with 5% DMSO; table does not say whether huIL-4 or muIL-4 test
# Procedure: Specific inhibition of IL-4 Binding in Cell-free Binding Assays. EP 488 170 A1, which is incorporated herein by reference, discloses cell-free binding tests. […] The bound peroxidase was detected after the plates had been washed repeatedly in a solution of tetramethylbenzidine substrate (Behringwerke). The extinction at 450 nm, which directly reflects the quantity of the biotinylated ligand bound to the receptor, was measured after the plates had been incubated for 30 min. […]
Square brackets hold non-standard residues; d marks the D form. Peptide text beside a SMILES is read from it.
parameter-measured: IC50 (µg/mL)

{"compound": "CC(C)[C@@H]1NC(=O)[C@H](Cc2ccc(O)cc2)NC(=O)[C@@H](C)NC(=O)[C@H](C(C)C)NC(=O)[C@H](Cc2ccc(O)cc2)NC(=O)[C@H](C)NC1=O [cyclo(Tyr--Val--Ala--Tyr--Val--(D)--Ala), cyclo(Tyr-Val-Ala-Tyr-Val-(D)-Ala)] (cyclo(AYV[dA]YV))", "study-target": "IL-4 receptor (receptor/Fc fusion protein)", "unit-text": "µg/mL", "observed": 8.3}
{"compound": "CC(C)[C@@H]1NC(=O)[C@H](Cc2ccc(O)cc2)NC(=O)[C@@H](C)NC(=O)[C@H](C(C)C)NC(=O)[C@H](Cc2ccc(O)cc2)NC(=O)[C@H]([C@@H](C)O)NC1=O [cyclo(Tyr--Val--Thr--Tyr--Val--(D)--Ala), cyclo(Tyr-Val-Thr-Tyr-Val-(D)-Ala)] (cyclo(TYV[dA]YV))", "study-target": "IL-4 receptor (receptor/Fc fusion protein)", "unit-text": "µg/mL", "observed": 92.0}
{"compound": "CC(C)C[C@@H]1NC(=O)[C@H](C(C)C)NC(=O)[C@H](Cc2ccc(O)cc2)NC(=O)[C@@H](C)NC(=O)[C@H](C(C)C)NC(=O)[C@H](Cc2ccc(O)cc2)NC1=O [cyclo(Tyr--Val--Leu--Tyr--Val--(D)--Ala), cyclo(Tyr-Val-Leu-Tyr-Val-(D)-Ala)] (cyclo(LYV[dA]YV))", "study-target": "IL-4 receptor (receptor/Fc fusion protein)", "unit-text": "µg/mL", "observed": 41.3}

* * *

# Tested on: IL-4 receptor (receptor/Fc fusion protein)
# procedure-details: Specific inhibition of IL-4 binding in cell-free binding assays (IC50 table)
# experimental-setup: cell-free IL-4 binding assay, biotinylated ligand 100 ng/ml, PBSA with 5% DMSO; table does not say whether huIL-4 or muIL-4 test
Square brackets hold non-standard residues; d marks the D form. Peptide text beside a SMILES is read from it. Hyp = O=C(O)[C@@H]1C[C@@H](O)CN1

{"compound": "CC(C)[C@@H]1NC(=O)[C@H](C)NC(=O)[C@H](Cc2ccc(O)cc2)NC(=O)[C@H](C(C)C)NC(=O)[C@@H](C)NC(=O)[C@H](Cc2ccc(O)cc2)NC1=O [cyclo(Val--Tyr--Ala--Val--Tyr--(D)--Ala), cyclo(Val-Tyr-Ala-Val-Tyr-(D)-Ala)] (cyclo(AVY[dA]VY))", "study-target": "IL-4 receptor (receptor/Fc fusion protein)", "IC50 [µg/mL]": 16.7}
{"compound": "CC[C@H](C)[C@@H]1NC(=O)[C@H](C(C)C)NC(=O)[C@H](Cc2ccc(O)cc2)NC(=O)[C@@H](C)NC(=O)[C@H](C(C)C)NC(=O)[C@H](Cc2ccc(O)cc2)NC1=O [cyclo(Tyr--Val--Ile--Tyr--Val--(D)--Ala), cyclo(Tyr-Val-Ile-Tyr-Val-(D)-Ala)] (cyclo(IYV[dA]YV))", "study-target": "IL-4 receptor (receptor/Fc fusion protein)", "IC50 [µg/mL]": 62.5}
{"compound": "CC(C)[C@@H]1NC(=O)[C@H](Cc2ccc(O)cc2)NC(=O)[C@@H](C)NC(=O)[C@H](C(C)C)NC(=O)[C@H](Cc2ccc(O)cc2)NC(=O)[C@H](CCCNC(=N)N)NC1=O [cyclo(Tyr--Val--Arg--Tyr--Val--(D)--Ala), cyclo(Tyr-Val-Arg-Tyr-Val-(D)-Ala)] (cyclo(RYV[dA]YV))", "study-target": "IL-4 receptor (receptor/Fc fusion protein)", "IC50 [µg/mL]": 96.6}
{"compound": "CC(C)[C@@H]1NC(=O)[C@H](Cc2ccc(O)cc2)NC(=O)[C@@H]2C[C@@H](O)CN2C(=O)[C@H](C(C)C)NC(=O)[C@H](Cc2ccc(O)cc2)NC(=O)[C@@H](C)NC1=O [cyclo(Tyr--Val--Hyp--Tyr--Val--(D)--Ala), cyclo(Tyr-Val-Hyp-Tyr-Val-(D)-Ala)] (cyclo([Hyp]YV[dA]YV))", "study-target": "IL-4 receptor (receptor/Fc fusion protein)", "IC50 [µg/mL]": 17.4}
